study.system: EGFR [d746-750] (Homo sapiens (Human), UniProt P00533, DEL746-750)
Sequence (P00533 other isoform, or with tags, fused parts or gaps del 1-667/del 746-750 limits assumed): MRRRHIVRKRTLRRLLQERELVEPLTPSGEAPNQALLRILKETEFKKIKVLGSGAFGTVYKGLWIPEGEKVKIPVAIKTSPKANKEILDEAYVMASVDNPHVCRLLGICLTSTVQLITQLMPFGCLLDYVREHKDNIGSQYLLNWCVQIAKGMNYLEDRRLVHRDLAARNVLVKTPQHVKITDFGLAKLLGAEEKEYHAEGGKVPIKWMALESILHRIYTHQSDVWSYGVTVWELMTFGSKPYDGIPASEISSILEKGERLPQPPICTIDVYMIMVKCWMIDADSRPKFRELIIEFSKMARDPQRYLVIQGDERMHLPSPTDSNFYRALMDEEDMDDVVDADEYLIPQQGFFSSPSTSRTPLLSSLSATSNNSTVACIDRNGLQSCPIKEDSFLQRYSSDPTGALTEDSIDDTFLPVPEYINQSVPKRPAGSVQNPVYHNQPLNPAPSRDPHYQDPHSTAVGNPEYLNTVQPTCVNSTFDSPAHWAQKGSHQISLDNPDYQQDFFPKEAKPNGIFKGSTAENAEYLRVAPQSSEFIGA
assay.name: Kinase assay (HTRF KinEASE TK), EGFR exon 19 deletion enzyme
Quick reference for log10(IC50) among some compounds
Annotation: log10 of IC50, nM basis.

> print(dat)
                                   compound                              study.system  measured.parameter  readout.value
1  COc1cc2ncnc(Nc3cccc(Cl)c3OC)c2cc1N1CC2(CCN(C)CC2)OC1=O [Formate of compound 4]  EGFR [d746-750] (Homo sapiens (Human), UniProt P00533, DEL746-750)         log10(IC50)           1.74
2  CCN1CC2(C1)CN(c1cc3c(Nc4cccc(Cl)c4F)ncnc3cc1OC)C(=O)O2  EGFR [d746-750] (Homo sapiens (Human), UniProt P00533, DEL746-750)         log10(IC50)          -1.16
3  COc1cc2ncnc(Nc3cccc(Cl)c3F)c2cc1N1CC2(CN(C)C2)OC1=O [Formate of compound 13]  EGFR [d746-750] (Homo sapiens (Human), UniProt P00533, DEL746-750)         log10(IC50)          -1.28
4  COc1cc2ncnc(Nc3ccc(Cl)c(Cl)c3F)c2cc1N1CC2(CCN(C)CC2)OC1=O [Formate of compound 6]  EGFR [d746-750] (Homo sapiens (Human), UniProt P00533, DEL746-750)         log10(IC50)          -1.15
5  COC[C@@H]1CN(c2cc3c(Nc4cccc(Cl)c4F)ncnc3cc2OC)C(=O)O1  EGFR [d746-750] (Homo sapiens (Human), UniProt P00533, DEL746-750)         log10(IC50)          -0.77

Field request: log10(IC50) | item: CC(C)N1CC2(CN(c3ccc4ncnc(Nc5cccc(Cl)c5F)c4c3)C(=O)O2)C1 [Formate of compound 33]
-0.54

Field request: log10(IC50) | item: CN1CCC2(CC1)CN(c1ccc3ncnc(Nc4cccc(Cl)c4F)c3c1)C(=O)O2 [Formate of compound 12]
-1.07
